experiment: Kinetic turbidimetric solubility assay; conditions: pH 7.4, aqueous buffer, kinetic from dmso stock, Solubility, 0.01 M PBS pH 7.4, 2% DMSO, room temperature; novel compounds as hemifumarate, psilocybin and psilocin free base
// solubility at 5 min lookup, one value per entry

| Compound | solubility at 5 min |
| --- | --- |
| CN(C)CCc1c[nH]c2cccc(O)c12 [Psilocin, psilocin] | > 200 µM |

State, in one line, measured solubility at 5 min of COC(=O)C1=C(C)NC(C)=C(C(=O)OCCN(C)Cc2ccccc2)C1c1cccc([N+](=O)[O-])c1 (stereo not drawn) [Nicardipine] 24.4 µM

State, in one line, measured solubility at 5 min of CN(C)CCc1c[nH]c2cccc(OP(=O)(O)O)c12 [Psilocybin, psilocybin, reference compound] ≥ 100 µM

###

molecular target: serotonin 2A (5-HT2A) receptor (Mus musculus, UniProt P35363); construct: tissue Charles River UK; host or cells: whole living male C57BL/6J mice (in vivo, oral gavage); assay: Head twitch response (HTR) in mice; type: in vivo, male C57BL/6J mice; details: oral gavage 0.3 mg/kg, N = 8
Sequence (P35363 whole entry): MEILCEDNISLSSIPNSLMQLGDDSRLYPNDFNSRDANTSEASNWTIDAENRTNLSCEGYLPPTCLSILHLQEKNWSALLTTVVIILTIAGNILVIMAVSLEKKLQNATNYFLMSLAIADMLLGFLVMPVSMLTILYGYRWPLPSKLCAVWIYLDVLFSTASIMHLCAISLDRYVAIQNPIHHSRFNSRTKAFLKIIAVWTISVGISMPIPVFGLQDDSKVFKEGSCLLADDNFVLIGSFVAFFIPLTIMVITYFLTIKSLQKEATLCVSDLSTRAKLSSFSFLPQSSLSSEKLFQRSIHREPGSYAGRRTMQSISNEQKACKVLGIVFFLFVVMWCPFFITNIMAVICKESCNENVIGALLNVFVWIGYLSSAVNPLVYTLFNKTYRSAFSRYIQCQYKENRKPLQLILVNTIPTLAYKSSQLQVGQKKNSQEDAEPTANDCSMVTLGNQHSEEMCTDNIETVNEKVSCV
// Mean number of head twitches 45-60 mins lookup, one value per entry
I'd appreciate a reply containing only the number, no unit.

// solved cases for Mean number of head twitches 45-60 mins follow
| Compound | Mean number of head twitches 45-60 mins |
| --- | --- |
| CCOC(=O)Oc1cccc2[nH]cc(CCN(C)CC)c12 | 0.38 |
| CN(C)CCc1c[nH]c2cccc(OC(=O)OC(C)(C)C)c12 [Psilocin-4-yl-tert-butylcarbonate, psilocin-4-yl tert-butyl carbonate] | 0.13 |
| CN(C)CCc1c[nH]c2cccc(OC(=O)OCc3ccccc3)c12 [Psilocin-4-yl-benzylcarbonate, psilocin-4-yl benzyl carbonate] | 1.13 |

Continue with the compound presented below.
# lookup: serotonin 2A (5-HT2A) receptor (Mus musculus, UniProt P35363) Mean number of head twitches 45-60 mins, key = CCOC(=O)Oc1cccc2[nH]cc(CCN(C)C)c12 [Psilocin-4-yl-ethylcarbonate, psilocin-4-yl ethyl carbonate] 1.13

###

assay: Micro shake flask Log D; conditions: pH 7.4
// logD at 2 h lookup, one value per entry
I'd appreciate a reply containing only the number, no unit.

| Compound | logD at 2 h |
| --- | --- |
| CN(C)CCc1c[nH]c2cccc(O)c12 | 1.01 |

Continue with the compound presented below.
State, in one line, measured logD at 2 h of CN(C)CCc1c[nH]c2cccc(OP(=O)(O)O)c12 [Psilocybin, psilocybin, reference compound] 0.57

###

assay: Shake flask Log D assay (Example 11); type: physicochemical; conditions: 1-Octanol / 100 mM PB pH 7.4, shake flask, LC-MS/MS; test compound as hydrochloride
Observed Property: logD at 1 h

| Molecule | logD at 1 h |
| --- | --- |
| CC(C)(C)NCC(O)COc1cccc2c1CC(O)C(O)C2 (centres unmarked) | -1.33 |

State, in one line, measured logD at 1 h of CN(C)CCCN1c2ccccc2Sc2ccc(Cl)cc21 3.28
